Target: Sialic acid-binding Ig-like lectin 9 (Homo sapiens) (UniProt Q9Y336)
Sequence (Q9Y336 whole entry): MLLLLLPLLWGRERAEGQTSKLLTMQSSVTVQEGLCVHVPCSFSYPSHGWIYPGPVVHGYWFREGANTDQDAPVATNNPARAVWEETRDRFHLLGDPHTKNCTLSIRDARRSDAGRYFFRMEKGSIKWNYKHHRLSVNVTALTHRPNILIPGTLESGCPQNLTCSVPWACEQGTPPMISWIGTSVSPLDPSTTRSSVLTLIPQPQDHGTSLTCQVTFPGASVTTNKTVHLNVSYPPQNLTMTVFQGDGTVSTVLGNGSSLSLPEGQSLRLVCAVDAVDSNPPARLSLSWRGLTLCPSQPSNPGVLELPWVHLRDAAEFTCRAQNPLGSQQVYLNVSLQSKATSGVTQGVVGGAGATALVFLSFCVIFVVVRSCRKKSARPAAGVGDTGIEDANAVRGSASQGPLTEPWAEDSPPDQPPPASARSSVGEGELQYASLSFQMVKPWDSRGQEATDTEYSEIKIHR
Assay: Hs-Siglec9 ALPHAscreen SOP 20170721
Set-up: scale not given: direction of the effect not stated beside the values
Conditions: 10 µM
Kindly supply the reported Percent Effect values for the records listed here.
I only need the number, in %, no unit after it.

Cn1cnnc1C1CCCN(C(=O)NCc2cc[nH]n2)C1 (stereo unspecified) has a reported Percent Effect of -7.02

Note to self: Percent Effect recorded for COc1cc(CNC2CCc3nc(C)nn3C2)cc2c1OCCO2 (stereo unspecified) was 6.01

Just so you know, measured Percent Effect for Cc1nn(C)c(C)c1C1COCCN1C(=O)c1ccccc1 (stereo unspecified) came out at 2.06

Form field Percent Effect, entry COc1ccc(C(=O)N2CCC(Nc3ccc(C)nn3)CC2)c(F)c1 : -1.89

Lab book: Percent Effect of Cc1noc([C@H]2C[C@H]3OCC[C@H]3N(S(=O)(=O)C3CC3)C2)n1 noted as 7.79

// CC(C)(C)OC(=O)N1CCCC[C@H]1C(=O)NCc1nccs1 : Percent Effect value = 5.11

Briefly, Percent Effect measured for CC(C)OCCOCc1cccc(NC(=O)NCc2ccccn2)c1 : 12

The recorded Percent Effect for Cc1ccc(CC(=O)N(C)CC2(O)CCN(c3ccccn3)C2)s1 (stereo unspecified) is -1.42

Memo: CC(C)c1nnc2n1CCN(C(=O)CN1Cc3ccccc3C1=O)C2 , reported Percent Effect: 2.22

Sample O=C(Cc1ccc2c(c1)CCO2)N1CCN(c2cnccn2)CC1 ; Percent Effect observed: -0.444

// Cn1nc(C2CCCN(Cc3ccsc3)C2)c2nccnc21 (stereo unspecified) : Percent Effect value = -2.94

====

Hi there, I'd appreciate the recorded Percent Effect for every entry that follows.
Species: Homo sapiens
Test: To identify inhibition of the IFN signalling (Jak-Stat) pathway via expression of an eGFP reporter gene under the control of an IFN-stimulated response element (ISRE) containing MxA promoter.
Assay type: functional
Design: scale not given: direction of the effect not stated beside the values
Settings: 30 µM
Please state the figure in %; there is no need to write the unit.

Noted for CSc1ccc(S(=O)(=O)N2CCCCC2CCNC(C)=O)cc1 (stereo not given) : its Percent Effect reads 9.17

Memo: OC1CCN(Cc2c(C3CCCNC3)[nH]c3ncccc23)CC1 (stereo not given) , reported Percent Effect: -1.37

According to the records, this compound Cn1nc(CNC(=O)NCc2ccc(Cl)cc2)c2c1CCOC2 displays Percent Effect of 20.2

Form: compound = CN1CCC(NC(=O)NCc2csc(Br)c2)CC1 ; Percent Effect = 2.14

Measured Percent Effect, CCCS(=O)(=O)NCC1CCOc2ccccc2C1 (stereo not given) : -3.37

Looking up Cn1nc(C2CCCN(Cc3ccsc3)C2)c2nccnc21 (stereo not given) , I see its Percent Effect listed as 3.34

// Percent Effect value for Cc1ccc(NS(=O)(=O)c2cc3c(c(C(=O)O)c2)OCCO3)c(F)c1 : -1.31

Entry CN1C(=O)CC(C(=O)O)C12CCN(Cc1ccc(F)cc1Cl)CC2 (stereo not given) , Percent Effect reported as 15.5

Reported Percent Effect ( CC(C)c1nnc2n1CCN(C(=O)CN1Cc3ccccc3C1=O)C2 ) = 6.89

// Cc1cccc(CNCc2c(C(C)C)nn(C)c2N2CCOCC2)n1 : Percent Effect value = -8.24

Record Cc1nccc(-c2cccc(NCC(=O)N3CCNC3=O)c2)n1 , field Percent Effect: 16.4

// Percent Effect lookup, compound = COCCOc1ccccc1CNCc1c(C)nn(C)c1N(C)C , result: -12

Consider O=C(c1ccc[nH]1)N1CCn2cc(Cn3cncn3)nc2C1 . Its measured Percent Effect is 13.4

Record COc1ccc(CN(C)CC2CCCN2c2cccnn2)cc1F (stereo not given) . Reported Percent Effect: 18.7

Summary for this compound, CC(C)Oc1cccc(C(=O)C2CCCN(C(=O)c3ccccn3)C2)c1 (stereo not given) : Percent Effect is 5

Form field Percent Effect, entry CCc1noc(C(C)N2CCN(Cc3noc(C)n3)CC2)n1 (stereo not given) : 15.5

Field Percent Effect (entry COc1ccccc1C(=O)N(C)Cc1ncc(C)c(OC)c1C ) reads 5.2

Given item CCN1CCN(C(=O)C(C)N2CCN(Cc3nccn3C)CC2)CC1 (stereo not given) , the value recorded as its Percent Effect is -7.4

Measured Percent Effect, c1ccc(-c2nc(CN3CCCC3Cn3cncn3)cs2)cc1 (stereo not given) : -16.9

Reported Percent Effect for Cc1nnc(SCC(=O)N2CCC3(CC2)c2ccccc2CC3O)o1 (stereo not given) was -5.03

Given item CCOCC(=O)NC1(c2cccc(Br)c2)CC1 , the value recorded as its Percent Effect is 13.1

According to the records, this compound CCc1c(C(=O)NCC(=O)OCC2CC2)cnn1-c1ccc(C)cc1 displays Percent Effect of 29

Percent Effect reported for this compound COCCCC1(CO)CCCN(CCS(C)(=O)=O)C1 (stereo not given) : -0.331

Documented Percent Effect of CCN(CCNC(=O)c1ccccc1OCCOC)C1CC1 : 14.4

Value of measured Percent Effect for the entry CC(=O)N(Cc1noc(C)n1)C1CCN(Cc2cc(C)on2)C1 (stereo not given) : 12.2

Data provenance: ChEMBL document CHEMBL3988442
